PROTOCOL: CX-157 solubility in candidate solvents, test tube method
Format: physicochemical
RUN_PARAMETERS: organic solvent or mixture, thermodynamic from solid; solvent ethanol, at 60° C., CX-157 Form A
REPORTED_METRIC: solubility

> print(dat)
                           substance.smiles  reported.measurement
1  O=S1(=O)c2ccc(F)cc2Oc2cc(OCC(F)(F)F)ccc21         < 10000 µg/mL

---

PROTOCOL: CX-157 solubility in candidate solvents, test tube method
Type: physicochemical
RUN_PARAMETERS: organic solvent or mixture, thermodynamic from solid; solvent methylene chloride, at room temperature, CX-157 Form A
REPORTED_METRIC: solubility

> print(dat)
                           substance.smiles  reported.measurement
1  O=S1(=O)c2ccc(F)cc2Oc2cc(OCC(F)(F)F)ccc21            < 20 mg/mL

---

PROTOCOL: CX-157 solubility in candidate solvents, test tube method
Format: physicochemical
RUN_PARAMETERS: organic solvent or mixture, thermodynamic from solid; solvent acetone, at room temperature, CX-157 Form A
REPORTED_METRIC: solubility

> print(dat)
                           substance.smiles  reported.metric  reported.measurement
1  O=S1(=O)c2ccc(F)cc2Oc2cc(OCC(F)(F)F)ccc21       solubility        60 to 80 mg/mL

Cited source for all entries: patent US8313766B2
